Target: Dual 3',5'-cyclic-AMP and -GMP phosphodiesterase 11A (Homo sapiens)
Sequence (Q9HCR9 whole entry): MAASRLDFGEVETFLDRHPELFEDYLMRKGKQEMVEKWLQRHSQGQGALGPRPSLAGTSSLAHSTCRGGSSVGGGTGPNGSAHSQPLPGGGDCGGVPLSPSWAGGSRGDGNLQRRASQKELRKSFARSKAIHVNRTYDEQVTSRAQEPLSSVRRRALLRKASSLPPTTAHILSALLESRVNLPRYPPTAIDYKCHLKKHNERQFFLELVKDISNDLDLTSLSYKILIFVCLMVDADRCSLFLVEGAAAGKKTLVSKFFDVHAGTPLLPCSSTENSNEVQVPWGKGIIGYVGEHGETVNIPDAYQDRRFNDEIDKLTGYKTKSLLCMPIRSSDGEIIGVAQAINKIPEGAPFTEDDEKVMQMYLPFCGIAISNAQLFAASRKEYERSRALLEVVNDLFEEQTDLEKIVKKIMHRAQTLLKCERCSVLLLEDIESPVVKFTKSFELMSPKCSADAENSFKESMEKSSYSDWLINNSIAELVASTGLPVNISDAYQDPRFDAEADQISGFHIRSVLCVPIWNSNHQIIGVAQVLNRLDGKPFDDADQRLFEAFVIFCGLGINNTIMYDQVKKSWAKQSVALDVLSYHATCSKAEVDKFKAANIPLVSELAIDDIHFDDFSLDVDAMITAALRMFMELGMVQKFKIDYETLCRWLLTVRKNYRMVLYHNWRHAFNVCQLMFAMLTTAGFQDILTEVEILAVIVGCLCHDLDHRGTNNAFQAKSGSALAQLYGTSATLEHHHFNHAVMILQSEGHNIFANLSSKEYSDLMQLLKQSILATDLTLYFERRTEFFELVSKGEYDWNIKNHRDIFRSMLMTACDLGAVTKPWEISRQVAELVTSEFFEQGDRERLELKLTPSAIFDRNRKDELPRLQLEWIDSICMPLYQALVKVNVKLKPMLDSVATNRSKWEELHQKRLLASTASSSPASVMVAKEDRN
Assay: Inhibition of full length recombinant human N-terminal GST-tagged PDE11A4 expressed in baculovirus infected sf9 cells using FAM-cyclic-3',5-AMP as substrate after 1 hr by fluorescence polarization assay
Reported IC50 values for the following compounds.

# COMPOUND, IC50 [nM]
data = [
    ("CCc1ccc([C@@H]2c3[nH]c4ccccc4c3C[C@@H]3C(=O)N(C)CC(=O)N23)s1", 272),
    ("CCc1ccc(C2c3[nH]c4ccccc4c3C(=O)CN2c2ncc(-c3ccc(OC)c(OC)c3)cn2)o1 (centres undefined)", 634),
    ("CCCCN1C(=O)[C@H]2Cc3c([nH]c4ccccc34)[C@@H](c3ccc(CC)s3)N2C1=O", 386),
    ("CCc1ccc([C@@H]2c3[nH]c4ccccc4c3C[C@@H]3C(=O)N(C)CC(=O)N23)o1", 119),
]

----------
Molecular target: High affinity cAMP-specific and IBMX-insensitive 3',5'-cyclic phosphodiesterase 8A (Homo sapiens, UniProt O60658)
Sequence (O60658 whole entry): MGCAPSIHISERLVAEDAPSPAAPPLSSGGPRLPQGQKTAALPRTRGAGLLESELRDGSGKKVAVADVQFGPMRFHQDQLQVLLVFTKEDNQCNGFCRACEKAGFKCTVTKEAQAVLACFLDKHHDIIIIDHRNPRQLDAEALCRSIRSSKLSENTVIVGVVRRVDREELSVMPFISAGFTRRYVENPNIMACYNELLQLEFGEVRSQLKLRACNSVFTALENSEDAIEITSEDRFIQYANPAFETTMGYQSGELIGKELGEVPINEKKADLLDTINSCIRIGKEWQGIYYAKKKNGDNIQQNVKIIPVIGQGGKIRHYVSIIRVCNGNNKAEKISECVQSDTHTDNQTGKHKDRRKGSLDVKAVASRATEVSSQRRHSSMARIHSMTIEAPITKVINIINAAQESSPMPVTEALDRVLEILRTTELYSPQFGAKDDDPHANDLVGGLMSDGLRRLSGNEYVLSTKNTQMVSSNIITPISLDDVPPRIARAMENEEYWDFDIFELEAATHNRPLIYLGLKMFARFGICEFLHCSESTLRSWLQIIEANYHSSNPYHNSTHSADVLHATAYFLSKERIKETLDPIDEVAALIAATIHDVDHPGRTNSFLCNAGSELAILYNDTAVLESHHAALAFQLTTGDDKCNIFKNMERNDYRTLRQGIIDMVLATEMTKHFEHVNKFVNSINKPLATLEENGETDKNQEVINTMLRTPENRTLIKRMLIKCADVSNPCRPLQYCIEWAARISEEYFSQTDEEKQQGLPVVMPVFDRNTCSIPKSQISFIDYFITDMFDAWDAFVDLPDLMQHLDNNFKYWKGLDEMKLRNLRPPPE
Experiment: Inhibition of full length recombinant human N-terminal GST-tagged PDE8A1 expressed in baculovirus infected sf9 cells using FAM-cyclic-3',5-AMP as substrate after 1 hr by fluorescence polarization assay

# SMILES CODE, IC50
data = [
    ("CN1CC(=O)N2[C@H](c3ccc4c(c3)OCO4)c3[nH]c4ccccc4c3C[C@@H]2C1=O", "> 10 µM"),
    ("CCc1ccc([C@@H]2c3[nH]c4ccccc4c3C[C@H]3C(=O)N(CC)C(=O)N23)o1", "> 3 µM"),
    ("CCc1ccc([C@@H]2c3[nH]c4ccccc4c3C[C@@H]3C(=O)N(C)CC(=O)N23)s1", "> 4 µM"),
]

----------
Test: Stability of the compound in PDE5 enzyme assay condition at 100 uM by HPLC analysis
Type: ADME

# COMPOUND, Stability
data = [
    ("CCc1ccc([C@@H]2c3[nH]c4ccccc4c3C[C@@H]3C(=O)N(C)CC(=O)N23)s1", "Stable"),
    ("CCc1ccc([C@@H]2c3[nH]c4ccccc4c3C[C@H]3C(=O)N(CC)C(=O)N23)o1", "Stable"),
    ("CCc1ccc([C@@H]2c3[nH]c4ccccc4c3C[C@H]3C(=O)N(CC)C(=O)N23)s1", "Stable"),
    ("CCc1ccc(C2c3[nH]c4ccccc4c3C(=O)CN2c2ncc(-c3ccc(OC)c(OC)c3)cn2)o1 (centres undefined)", "Stable"),
]

----------
Reported IC50 values for the following molecules.
Target: cGMP-inhibited 3',5'-cyclic phosphodiesterase 3B (Homo sapiens, UniProt Q13370)
Sequence (Q13370 whole entry): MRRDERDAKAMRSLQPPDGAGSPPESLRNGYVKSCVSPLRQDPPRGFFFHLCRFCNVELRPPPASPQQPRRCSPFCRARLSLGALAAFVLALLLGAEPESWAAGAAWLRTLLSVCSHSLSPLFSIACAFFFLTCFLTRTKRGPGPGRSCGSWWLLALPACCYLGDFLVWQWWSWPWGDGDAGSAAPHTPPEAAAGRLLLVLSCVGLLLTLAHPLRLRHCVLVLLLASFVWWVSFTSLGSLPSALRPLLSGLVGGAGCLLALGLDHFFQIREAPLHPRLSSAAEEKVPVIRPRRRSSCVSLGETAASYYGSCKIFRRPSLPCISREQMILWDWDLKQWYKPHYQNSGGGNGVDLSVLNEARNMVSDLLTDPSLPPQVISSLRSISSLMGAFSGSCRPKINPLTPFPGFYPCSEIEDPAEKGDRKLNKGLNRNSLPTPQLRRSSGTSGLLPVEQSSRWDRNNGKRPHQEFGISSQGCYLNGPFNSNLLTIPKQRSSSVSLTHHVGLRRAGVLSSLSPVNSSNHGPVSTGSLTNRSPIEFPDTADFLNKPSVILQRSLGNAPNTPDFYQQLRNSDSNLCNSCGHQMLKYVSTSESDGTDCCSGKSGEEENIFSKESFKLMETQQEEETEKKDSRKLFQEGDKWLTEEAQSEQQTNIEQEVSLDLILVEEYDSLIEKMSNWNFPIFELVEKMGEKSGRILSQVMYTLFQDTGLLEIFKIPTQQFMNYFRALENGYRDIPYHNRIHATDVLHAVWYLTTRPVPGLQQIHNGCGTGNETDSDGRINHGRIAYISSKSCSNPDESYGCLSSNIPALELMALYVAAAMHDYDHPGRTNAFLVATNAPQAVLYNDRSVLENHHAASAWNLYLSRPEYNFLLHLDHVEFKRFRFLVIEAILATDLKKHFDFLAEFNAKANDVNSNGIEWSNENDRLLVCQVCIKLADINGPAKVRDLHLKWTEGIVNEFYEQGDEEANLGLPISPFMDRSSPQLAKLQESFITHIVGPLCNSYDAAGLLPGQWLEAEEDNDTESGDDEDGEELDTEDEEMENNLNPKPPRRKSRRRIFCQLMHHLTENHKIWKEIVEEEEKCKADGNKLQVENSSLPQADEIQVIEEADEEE
Assay: Inhibition of recombinant human N-terminal GST-tagged PDE3B (592 to end residues) expressed in baculovirus infected sf9 cells using FAM-cyclic-3',5-AMP as substrate after 1 hr by fluorescence polarization assay
MEASUREMENT NAME: IC50

# SMILES CODE, MEASUREMENT NAME, RESULT
measured = [
    ("CCc1ccc([C@@H]2c3[nH]c4ccccc4c3C[C@@H]3C(=O)N(CC)C(=O)N23)o1", "IC50", "> 20 µM"),
    ("CCN1C(=O)[C@@H]2Cc3c([nH]c4ccccc34)[C@@H](c3ccc(C)o3)N2C1=O", "IC50", "> 20 µM"),
    ("CCc1ccc([C@H]2c3[nH]c4ccccc4c3C[C@H]3C(=O)N(C)CC(=O)N23)s1", "IC50", "> 20 µM"),
    ("CCc1ccc([C@@H]2c3[nH]c4ccccc4c3C[C@H]3C(=O)N(CC)C(=O)N23)o1", "IC50", "> 20 µM"),
    ("CN1CC(=O)N2[C@H](c3ccc(Br)s3)c3[nH]c4ccccc4c3C[C@@H]2C1=O", "IC50", "> 20 µM"),
    ("CN1CC(=O)N2[C@H](c3ccc4c(c3)OCO4)c3[nH]c4ccccc4c3C[C@@H]2C1=O", "IC50", "> 10 µM"),
    ("CCN1C(=O)[C@@H]2Cc3c([nH]c4ccccc34)[C@@H](c3sccc3C)N2C1=O", "IC50", "> 20 µM"),
    ("CCc1ccc([C@@H]2c3[nH]c4ccccc4c3C[C@H]3C(=O)N(CC)C(=O)N23)s1", "IC50", "> 20 µM"),
    ("Cc1ccc([C@@H]2c3[nH]c4ccccc4c3C[C@@H]3C(=O)N(C)CC(=O)N23)s1", "IC50", "> 20 µM"),
    ("CCc1ccc([C@@H]2c3[nH]c4ccccc4c3C[C@@H]3C(=O)N(C)CC(=O)N23)o1", "IC50", "> 20 µM"),
]
